# Test system: Klebsiella pneumoniae strain NCTC 9633 (ATCC #13883)
# RUN DESCRIPTION: bacterial proliferation assay, K. pneumoniae
# Assay type: cell-based
# CONDITION CONTEXT: Klebsiella pneumoniae, read-out: Bacterial Proliferation EC50 K. pneumoniae
pEC50: −log10 of the molar value.
MEASURE NAME: pEC50

compound="COc1ccc(C(=O)NN)cc1 [Compound 42, reference compound]" value="< 4.00"
compound=O=C(N/N=C/c1ccc(O)c2ncccc12)c1cccc2ccccc12 value="< 4.00"
compound=O=C(N/N=C/c1ccc(O)c2ncccc12)c1ccc(O)cc1 value=4.06
compound=COc1ccc(C(=O)N/N=C/c2ccc(O)cc2)cc1 value="< 4.00"
compound=COc1ccc(C(=O)N/N=C/c2ccc(O)c3ccccc23)cc1 value="< 4.00"
compound=O=C(N/N=C/c1ccc([N+](=O)[O-])o1)c1ccc(NS(=O)(=O)c2cccs2)cc1 value="< 4.00"
compound=O=C(N/N=C/c1ccc(O)c2ncccc12)c1ccc(NS(=O)(=O)c2cccs2)cc1 value="< 4.00"
compound="O=C1CN(/N=C/c2ccc([N+](=O)[O-])o2)C(=O)N1 [Nitrofurantoin, reference compound]" value=4.40

---

# System: Klebsiella pneumoniae strain NCTC 9633 (ATCC #13883)
# RUN DESCRIPTION: bacterial proliferation assay, K. pneumoniae
# Assay type: cell-based
# CONDITION CONTEXT: read-out: Bacterial Proliferation EC50 K. pneumoniae
pEC50: −log10 of the molar value.
MEASURE NAME: pEC50

test_smiles=COc1ccc(C(=O)N/N=C/c2ccc(O)c3ncccc23)cc1 value=4.07

---

# Tested on: Enterobacter cloacae strain CDC 442-68 (ATCC #13047)
# RUN DESCRIPTION: bacterial proliferation assay, E. cloacae
# Format: cell-based
# CONDITION CONTEXT: ATCC13047, read-out: Bacterial Proliferation EC50 E. cloacae
MEASURE NAME: EC50

compound="O=C(N/N=C/c1ccc([N+](=O)[O-])o1)c1ccc(O)cc1 [Nifuroxazide, reference compound]" value="54 µM"
compound=O=C(N/N=C/c1ccc([N+](=O)[O-])o1)c1cccs1 value="40 µM"
compound=O=C(N/N=C/c1ccc(O)c2ncccc12)c1ccncc1 value="> 100 µM"
compound=O=C(N/N=C/c1ccc(O)c2ncccc12)c1cccc2ccccc12 value="> 100 µM"
compound=O=C(N/N=C/c1ccc([N+](=O)[O-])o1)c1ccc(NS(=O)(=O)c2ccc(Br)cc2)cc1 value="> 100 µM"
compound=O=C1CN(/N=C/c2ccc(O)c3ncccc23)C(=O)N1 value="> 100 µM"
compound=O=C(N/N=C/c1ccc(O)c2ncccc12)c1cccc(Oc2ccccc2)c1 value="> 100 µM"
compound=O=C(N/N=C/c1ccc([N+](=O)[O-])o1)c1ccccc1Oc1ccccc1 value="> 100 µM"
compound=O=C(N/N=C/c1ccc([N+](=O)[O-])o1)c1ccc(NS(=O)(=O)c2cccs2)cc1 value="> 100 µM"
compound="O=C(N/N=C/c1ccc(O)cc1)c1ccccc1 [Compound 36, N′-(4-hydroxybenzylidene)benzohydrazide]" value="> 100 µM"
compound="O=[N+]([O-])c1ccc(O)c2ncccc12 [Nitroxoline, reference compound]" value="6.6 µM"
compound=COc1ccc(C(=O)N/N=C/c2ccc(O)cc2)cc1 value="> 100 µM"
compound=CCN(CC)S(=O)(=O)c1cccc(C(=O)N/N=C/c2ccc([N+](=O)[O-])o2)c1 value="> 100 µM"
